system name: BRAF G466V (Homo sapiens, UniProt P15056, G466V)
Construct: expressed in transfected cells
Sequence (P15056 whole entry G466V): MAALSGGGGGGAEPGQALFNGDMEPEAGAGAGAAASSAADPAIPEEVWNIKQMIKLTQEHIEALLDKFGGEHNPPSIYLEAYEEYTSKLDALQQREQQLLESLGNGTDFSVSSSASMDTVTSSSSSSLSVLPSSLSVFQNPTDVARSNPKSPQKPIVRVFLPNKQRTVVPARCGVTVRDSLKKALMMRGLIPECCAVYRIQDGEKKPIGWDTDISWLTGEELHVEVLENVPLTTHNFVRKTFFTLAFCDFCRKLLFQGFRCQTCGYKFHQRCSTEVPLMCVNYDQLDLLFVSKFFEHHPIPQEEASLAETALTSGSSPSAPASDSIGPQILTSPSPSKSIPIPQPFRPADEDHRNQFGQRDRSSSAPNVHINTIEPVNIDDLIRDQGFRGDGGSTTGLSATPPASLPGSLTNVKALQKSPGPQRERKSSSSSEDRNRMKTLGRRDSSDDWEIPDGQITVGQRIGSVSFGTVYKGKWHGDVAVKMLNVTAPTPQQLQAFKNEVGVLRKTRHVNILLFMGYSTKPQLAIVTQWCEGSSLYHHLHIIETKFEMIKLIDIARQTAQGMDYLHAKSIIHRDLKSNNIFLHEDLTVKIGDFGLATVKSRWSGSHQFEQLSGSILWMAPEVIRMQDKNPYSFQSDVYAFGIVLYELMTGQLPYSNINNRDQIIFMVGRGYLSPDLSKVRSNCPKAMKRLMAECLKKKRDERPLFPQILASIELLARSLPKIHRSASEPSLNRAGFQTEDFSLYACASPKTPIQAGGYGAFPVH
measurement notes: Cellular assay of target protein degradation, T-Rex 293 cells stably transfected with HA-BRAF G466V (HA immunofluorescence, high content imaging)
Type: cell-based
conditions: half maximal degradation, T-Rex 293 HA-BRAF G466V; read-out: BRaf G466V DC50
Readings of DC50 for the listed compounds

compound	reported value
O=C1CCC(N2Cc3cc(N4CC[C@H]4COc4ccc(-c5cnc6[nH]cc(C(=O)c7c(F)ccc(NS(=O)(=O)N8CC[C@@H](F)C8)c7F)c6c5)cc4)ccc3C2=O)C(=O)N1 (some centres unmarked) [Compound 23]	> 30 nM
O=C1CC[C@@H](N2Cc3cc(C4CCN(CC5CCN(c6ccc(-c7cnc8[nH]cc(C(=O)c9c(F)ccc(NS(=O)(=O)N%10CCC(F)(F)C%10)c9F)c8c7)cc6)CC5)CC4)ccc3C2=O)C(=O)N1 [Compound 233]	1 to 10 nM
O=C1CCC(N2Cc3cc(N4CC(C5CN(CC6CCN(c7ccc(-c8cnc9[nH]cc(C(=O)c%10c(F)ccc(NS(=O)(=O)N%11CC[C@@H](F)C%11)c%10F)c9c8)cc7)CC6)C5)C4)ccc3C2=O)C(=O)N1 (some centres unmarked) [Compound 227]	1 to 10 nM
O=C1CC[C@@H](NC(=O)c2cc(C3CCN(CC4CCN(c5ccc(-c6cnc7[nH]cc(C(=O)c8c(F)ccc(NS(=O)(=O)N9CC[C@@H](F)C9)c8F)c7c6)cc5)CC4)CC3)ccc2F)C(=O)N1 [Compound 197]	1 to 10 nM

Alright, here's another compound for you.
Query (compound): O=C1CCC(N2Cc3cc(N4CC5(CN(CCOc6ccc(-c7cnc8[nH]cc(C(=O)c9c(F)ccc(NS(=O)(=O)N%10CC[C@@H](F)C%10)c9F)c8c7)cc6F)C5)C4)ccc3C2=O)C(=O)N1 (some centres unmarked) [Compound 114] ; field requested: DC50
1 to 10 nM
